experimental readout: melting point

compound	melting point
Cc1ccccc1-c1nc(-c2cccc(Cl)c2)n[nH]1	147 to 148 °C
CCOC(=O)C(C)(C)c1ccc(CCNC(=O)c2ccc(Cl)cc2)cc1	108 to 109 °C
CCCC12CCC3C4CCC(=O)C=C4CCC3C1CCC2OCc1ccccc1 (stereo unspecified)	198 to 200 °C
Fc1ccc(/C=C/c2cc(F)cc(F)c2)cc1	47 °C

q: For the compound CC1(C)NC(=O)OC12CCNCC2 , what melting point is on record?
a: 38 to 40 °C

q: Another: O=C(O)C1=CCC2CC(=O)N12 (stereo unspecified)
a: 172 to 174 °C

----------
Attribute: melting point

As a guide, the following entries are already answered.
molecule	melting point
NS(=O)(=O)c1ccc(S(=O)(=O)CCCc2ccc(O)cc2)s1	112 to 115 °C
C=COC(=O)N=c1sc2cc(OC(F)(F)F)ccc2n1CCSC(C)=O	173 °C

q: For the molecule FC(F)(F)c1cccc(CSc2nnc(-c3ccc4nccn4c3)o2)c1 , what melting point is on record?
a: 147 to 148 °C

q: Another: COC(=O)c1nc(OC)n(C)c1C(=O)OC
a: 62 to 63 °C

q: Another: C=C1CCC23OC2(C1)CC(C)C1C2CCC(O)C2(C)CCC13 (stereo not given)
a: 125 °C

----------
experimental readout: melting point

As a guide, the following entries are already answered.
compound	melting point
COc1cc(N(C)C)c(Cl)cc1C(=O)NCC1CN(CCCOc2ccc(Cl)cc2)CCO1 (stereo not given)	128 to 130 °C
NC(=S)N1CCN(c2ccc(SC(CCc3ccc(Cl)cc3)Cn3ccnc3)cc2)CC1 (stereo not given)	130 to 133 °C
COc1cc(N2CCC(N3CCCN(CCO)CC3)CC2)ccc1Nc1ncc2ccc(-c3ccccc3OC)n2n1	72 to 80 °C

q: For the compound O=c1c(CCCc2ccco2)cc2cccnc2n1-c1cccc([N+](=O)[O-])c1 , what melting point is on record?
a: 166 to 167 °C

q: Another: C[C@@H](n1ncn(-c2ccncc2)c1=O)[C@@]1(c2ccc(F)cc2F)CO1
a: 96 to 97 °C

----------
Attribute: melting point

As a guide, the following entries are already answered.
molecule	melting point
COc1ccccc1C1CCNC(N)=N1 (stereo not given)	189 to 191 °C
CC(C#Cc1ccc(Br)cc1)N(O)C(N)=O (stereo not given)	155 to 157 °C
Cc1c2n(c3ccccc13)CC(C)(C)C2O (stereo not given)	82 to 85 °C
CCOC(=O)C(=C(c1ccc(F)cc1)c1ccc(F)cc1)n1nnnc1C	103 to 104 °C
Cc1cc(C#N)cnc1N	198 to 200 °C

q: For the molecule CC(=O)c1ccc2c(c1)C(C(=O)Nc1cccc(C(=O)Nc3ccc(Br)cc3)c1)C(=O)N2C (stereo not given) , what melting point is on record?
a: 234 to 236 °C

q: Another: O=c1nc(-c2cccc(Cl)c2)c2cc(C(c3ccc(Cl)cc3)n3ccnc3-c3ccccc3)ccc2[nH]1 (stereo not given)
a: 170 °C

q: Another: COc1cc(C)nc2c(O)cccc12
a: 110 to 112 °C

q: Another: CCn1c(=O)c(CC(=O)O)cc2ccc(O)cc21
a: 226 to 229 °C

q: Another: CCCc1nc2c(N)nc3cc(Br)ccc3c2n1CCCONC(=O)C(C)C
a: 176 to 178 °C

q: Another: COc1ccc(-c2nc(C)c(C)nc2-c2ccc(OC)cc2)cc1
a: 106 to 108 °C

q: Another: O=C(CN(Cc1ccccc1)c1c(C(=O)O)[nH]c2cc(Cl)cc(Cl)c12)c1ccccc1
a: 266 to 267 °C

q: Another: COc1cc2ccc(CC(=O)Cl)cc2cc1OC
a: 51 to 62 °C

q: Another: Cc1nc(N2CCC(Cc3ccc(C(F)(F)F)cc3)C2=O)sc1C(=O)NCc1ccccc1 (stereo not given)
a: 174 to 175 °C

q: Another: Cc1sc2nc(SCCCN3CCN(c4nc5ccccc5s4)CC3)n(N)c(=O)c2c1C
a: 200 to 201 °C

q: Another: O=C(OCCN1C(=O)c2ccccc2C1=O)c1cccc2c(=O)c(OCCN3C(=O)c4ccccc4C3=O)c(-c3ccc(OCc4ccc5ccccc5n4)cc3)oc12
a: 211 to 212 °C

q: Another: c1ccc(Cn2c(-c3ccc4c(c3)OCCO4)nc3cccnc32)cc1
a: 156 to 158 °C

q: Another: O=CC(=Cc1ccc(OC(=O)c2ccccc2F)cc1)C(C=O)=Cc1ccc(OC(=O)c2ccccc2F)cc1
a: 197 to 199 °C

q: Another: Fc1ccc2c(C3=CCN(CC4CCc5ccccc5O4)CC3)c[nH]c2c1 (stereo not given)
a: 160 to 161 °C

q: Another: O[C@H](CCl)COc1ccc(OCc2ccccc2)cc1
a: 78 to 80 °C
